Recorded pIC50 by entry
biological target: Transient receptor potential cation channel subfamily V member 1 (Rattus norvegicus); test: Inhibition of rat TRPV1 expressed in CHO cells assessed as capsaicin-induced Ca2+ influx; format: cell-based
Sequence (O35433 whole entry): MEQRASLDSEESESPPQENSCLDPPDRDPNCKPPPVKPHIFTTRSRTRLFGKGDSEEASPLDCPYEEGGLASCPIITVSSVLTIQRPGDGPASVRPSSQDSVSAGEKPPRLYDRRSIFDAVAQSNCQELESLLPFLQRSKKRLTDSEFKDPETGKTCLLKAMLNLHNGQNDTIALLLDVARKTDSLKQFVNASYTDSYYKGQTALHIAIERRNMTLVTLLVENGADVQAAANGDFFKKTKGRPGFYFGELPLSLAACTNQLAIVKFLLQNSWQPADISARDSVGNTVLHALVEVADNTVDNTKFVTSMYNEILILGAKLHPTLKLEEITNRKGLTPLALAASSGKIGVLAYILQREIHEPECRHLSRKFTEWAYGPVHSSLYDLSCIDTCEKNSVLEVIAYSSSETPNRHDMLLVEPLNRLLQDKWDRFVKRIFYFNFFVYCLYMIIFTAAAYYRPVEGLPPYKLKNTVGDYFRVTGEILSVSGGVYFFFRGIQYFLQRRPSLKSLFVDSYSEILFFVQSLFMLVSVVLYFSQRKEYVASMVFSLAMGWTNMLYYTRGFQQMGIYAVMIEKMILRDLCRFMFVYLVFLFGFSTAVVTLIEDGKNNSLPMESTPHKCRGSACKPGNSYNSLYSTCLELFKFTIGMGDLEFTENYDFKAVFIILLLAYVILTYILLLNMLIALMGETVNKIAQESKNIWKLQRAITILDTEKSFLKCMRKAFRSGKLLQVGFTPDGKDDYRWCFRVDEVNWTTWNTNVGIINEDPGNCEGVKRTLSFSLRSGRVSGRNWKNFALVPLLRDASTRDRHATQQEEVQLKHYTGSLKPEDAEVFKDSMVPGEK
Hey, just a heads up that pIC50 is the negative log base 10 of the concentration in molar.

CC(=O)Nc1nc2c(Oc3cc(N4CCN(C(C)(C)C)CC4)ncn3)cccc2s1 = 5.82
CC(=O)Nc1nc2c(Oc3cc(C4CCC(C(F)(F)F)CC4)ncn3)cccc2s1 (centres undefined) = 6.46
CC(=O)Nc1nc2c(Oc3cc(C4=CCC(C(F)(F)F)CC4)ncn3)cccc2s1 (centres undefined) = 7.57

Prompt: What value of pIC50 has been reported for the following compound? CC(=O)Nc1nc2c(Oc3cc(N4CCN(CC(F)(F)F)CC4)ncn3)cccc2s1
Completion: 6.42

Prompt: What value of pIC50 has been reported for the following compound? CC(=O)Nc1nc2c(Oc3cc(N4CCN(CC(C)(C)C)CC4)ncn3)cccc2s1
Completion: 8.52

Prompt: What value of pIC50 has been reported for the following compound? CC(=O)Nc1nc2c(Oc3cc(N4CCN(C(C)c5ccc(C(F)(F)F)cc5)CC4)ncn3)cccc2s1 (centres undefined)
Completion: 8.30

Prompt: What value of pIC50 has been reported for the following compound? CC(=O)Nc1nc2c(Oc3cc(N4CCC(C(F)(F)F)CC4)ncn3)cccc2s1
Completion: 6.48
